biological target: pooled human IgG (human IgG1,2,3 and 4)
Measured Enzyme Activity Endpoint Assay: scIgG, listed per entry for reference.
The figure you give is taken to be in ng/µL; do not add the unit.

protein: PRT-89 (protein) MANQEIRYSEVTPYHVTSVWTKGVTPPAKFTQGEDVFHAPYVANQGWYDITKTFNGKDDLLCGAATAGNMLHWWFDQNKEKIEAYLKKHPEKQKIMFGDQELLDVRKVINTKDDQTNSELFNYFRDKAFPGLSARRLGVMPDLVLDMFINGYYLNVYKTQTTDVNRTYQEKDRRGGIFDAVFTRGDQSKLLTSRHDFKEKNLKEISDLIKKELTEGKALGLSHTYANVRINHVINLWGADFDSNGNLKAIYVTDSDSNASIGMKKYFVGVNSAGKVAISAKEIKEDNIGAQVLGLFTLSTGQDIWNQTN
resultType: Enzyme Activity Endpoint Assay: scIgG
unitString: ng/µL
obsValue: 0

Documented Enzyme Activity Endpoint Assay: scIgG of PRT-95 (protein) MANQEIRYSEVTPYHITSVWTKGVTPPAKFTQGEDVFHAPYVANQGWYDITKTFNGKDDLLCGAATAGNMLHWWFDQNKEKIEAYLKKHPDKQKIMFGDQELLDVRKVINTKGDQTNSELFNYFRDKAFPNLSARRIGVMPDLVLDMFINGYYLNVGKTQTTDVNRTYQEKDKRGGIFDAVFTRGDQSKLLTSRHDFKEKNLKEISDLIKQELTEGKALGLSHTYANVRINHVINLWGADFDSNGNLKAIYVTDSDSNASIGMKKYFVGVNSAGKVAISAKEIEEDNIGAQVLGLFTLSTGQDSWNQTN : 0
